- Tested on: SNB-75
- test.summary: NCI tumour cell line growth inhibition, 48 h
Activity calls are given as the source filed them. Cut-off read from the data, not from the text of the source: active = GI50 up to about 1.1 µM and inactive = higher.
// one of active, inactive, no free text

Lookup: Any idea what this test logged for Cc1cc(C#N)c(Nc2c(C)cccc2[N+](=O)[O-])s1 ?
Found: inactive

Lookup: Now give it for O=C1C(Cl)=C(N2C(=O)CCCC2=O)C(=O)c2ccccc21 too.
Found: inactive

###

Entries annotated with measured GI50
- Test system: RPMI-8226
- test.summary: NCI tumour cell line growth inhibition, 48 h
Activity calls are given as the source filed them. Rule as the data show it: active = GI50 up to about 1.1 µM and inactive = higher.

Example cases with answers are listed next.
Cc1nc2c(o1)/C(=N\c1ccccc1)c1ccccc1/C2=N/c1ccccc1
47 µM (inactive)
O=C1c2ccccc2C2(O)Oc3cccc(O)c3C12O (stereo unspecified)
> 100 µM (inactive)
O=C(O)COc1ccc(O)c2c1C(=O)CCCC2=O
> 100 µM (inactive)
Clc1ccc(-c2nc(-c3ccc(Cl)cc3)[s+]s2)cc1
32.6 µM (inactive)
COc1cc(C2C(C(=O)O)=C(COC(C)=O)Oc3cc4c(cc32)OCO4)cc(OC)c1OC(C)=O (stereo unspecified)
> 100 µM (inactive)

Lookup: Form field: GI50 recorded for CCOC(=O)N1CCC(=C2c3ccc(Cl)cc3CCc3cccnc32)CC1 [LORATADINE] with RPMI-8226 (enter value)
Found: 3.83 µM (inactive)

Lookup: Could you do the same for O=C(CCc1cccc(O)c1)NCCc1cccc(OCc2ccccc2)c1 , please?
Found: 16.2 µM (inactive)

Lookup: // next record Cc1cc(O)c2c(c1)C(=O)c1cc(O)cc(O)c1C2=O [EMODIN]
Found: 17.7 µM (inactive)

Lookup: Next up: CCOC(=O)c1ccc(C(=O)C(C(C)=O)C(=O)OC(C)(C)C)n1C (stereo unspecified)
Found: > 100 µM (inactive)

Lookup: One more molecule: O=Cc1ccc2ccocc1-2
Found: > 100 µM (inactive)

Lookup: Input CCCCNC(=O)C1C2CCC(O2)C1C(=O)O (stereo unspecified)
Found: 20.9 µM (inactive)

###

- Test system: SF-295
- test.summary: NCI tumour cell line growth inhibition, 48 h
Calls of active or inactive are those of the source. No stated cut-off is given here; in the data, active = GI50 up to about 1.1 µM and inactive = higher.
reported.endpoint: GI50

Solved entries (count: 6):
CCCCOC(=O)Nc1ccc(S(=O)(=O)Nc2ccccc2Cl)cc1
17.3 µM (inactive)
CCCCc1cc2c(C)cc(=O)oc2c(O)c1O
22.2 µM (inactive)
CCOC(=O)c1c(Nc2ccccc2)sc2cccnc12
21.4 µM (inactive)
Cc1ccc(C(=O)O)c(CC2Cc3c(C)cccc3C2=O)c1 (stereo not given)
> 100 µM (inactive)
CCCCCCCC(=O)OCC(COC(=O)C(C)(C)C)OC(=O)Cc1ccccc1 (stereo not given)
> 100 µM (inactive)
O=C1NC2C=CN(Cc3ccccc3)C=C2C(=O)N2CCCC12 (stereo not given)
> 100 µM (inactive)

Lookup: For CC(C)C(N)C(=O)NC(CCC(=O)NCCCCC(N)C(=O)NCCCNc1ccc([N+](=O)[O-])c2[nH]c3ccccc3c(=O)c12)C(N)=O (stereo not given) , what is its reported GI50?
Found: 55.7 µM (inactive)

Lookup: Subsequent entry: COc1cc2cc3c4c(cc(OC)c(OC)c4c2cc1OC)CCN3C(=O)CCC(=O)O
Found: > 100 µM (inactive)

Lookup: Same question, C[N+](C)(CCNC(=O)c1cccc2cc3ccccc3nc12)Cc1ccc([N+](=O)[O-])s1 this time
Found: > 25 µM (inactive)

Lookup: Next record, please: CCCCCCc1cn([C@H]2C[C@H](O)[C@@H](CO)O2)c(=O)[nH]c1=O
Found: > 31.6 µM (inactive)

###

- Test system: A549
- test.summary: NCI tumour cell line growth inhibition, 48 h
Active and inactive are the calls of the source. Rule as the data show it: active = GI50 up to about 1.1 µM and inactive = higher.
Hi! Could you answer with just one of these? active, inactive

Illustrative cases are given below, each with its answer.
COC(=O)C1=C(O)C(O)=C(C(=O)OC)C1
inactive
Cc1cc2c(=O)[nH]nc(N)c2c(N)n1
inactive
CC(C)=CCC[C@@H](C)C1=C(O)C(=O)C(C)=C(Nc2ccccc2Cl)C1=O
inactive
O=C1NC2C=CN(Cc3ccccc3)C=C2C(=O)N2CCCC12 (configuration not stated)
inactive
CC(C)COP(C)(=O)C(N)(C(F)(F)F)C(F)(F)F (configuration not stated)
inactive
C#Cc1c(C)c(/C=C/C(C)=C/C=C/C(C)=C/C(=O)OC)n(C)c1C
inactive
CC(=O)Nc1ccc(Nc2nc(=O)[nH]c(=O)[nH]2)cc1
inactive
C=C1CCC23CC(CC[C@@H]2[C@@]12C[C@@H](c1ccoc1)OC2=O)OC3=O (some centres not stated)
inactive

Lookup: Kindly provide the recorded test outcome for the following compound: CCOc1cnc(C(O)(c2ccccc2)c2ccccc2)o1
Found: inactive

Lookup: And CCCCCCCC/C=C\CCCCCCCC(=O)NCCN(CCN)C(=O)CCCCCCC/C=C\CCCCCCCC ?
Found: inactive

Lookup: Same for O=C1NC(N2CCCCC2)=N/C1=C\c1ccccc1
Found: inactive

Lookup: What about N#C/N=C(/N)NCO ?
Found: inactive

Lookup: What do you have for CCn1c2ccccc2c2ccc(C3C(C(=O)OC)=C(C)NC(C)=C3C(=O)OC)cc21 ?
Found: inactive

Lookup: Consider next the compound O=C(O)c1c(CC(Cc2ccccc2)C(=O)O)ccc2c1CCC2 (configuration not stated) in the same way.
Found: inactive

###

- Test system: UACC-62
- test.summary: NCI tumour cell line growth inhibition, 48 h
Calls of active or inactive are those of the source. No stated cut-off is given here; in the data, active = GI50 up to about 1.1 µM and inactive = higher.
Your answer must be one of the following: true for active, false for inactive

Worked set:
CC(C)C[C@H](NC(=O)[C@H](CCc1ccccc1)NC(=O)c1ccc2ccccc2n1)B(O)O
true
COC(=O)C1=C(C)NC(C)=C(C(=O)OC)C1c1ccccc1NO
false
Fc1cccc(C2SCc3nc4ccccc4n32)c1F (stereo not given)
false
COc1ccccc1NC(=O)C(C#N)=C(SC)SC
false
O=C(O)COc1ccccc1C(=O)Nc1ccccc1
false
O=C(O)CCSCCCN1C(=O)c2ccccc2C1=O
false

In the following, a different compound is considered.
Lookup: Which outcome was entered for the compound CCOC(=O)C(NC(=O)CC)(Nc1ccc(S(=O)(=O)Nc2onc(C)c2C)cc1)C(F)(F)F (stereo not given) in this test?
Found: false

###

- System: DLD-1
- test.summary: NCI tumour cell line growth inhibition, 48 h
Active and inactive are the calls of the source. Rule as the data show it: active = GI50 up to about 1.1 µM and inactive = higher. Starred links: 1 amine or outer side, 2 acyl side, 3 side chain; linkers in the order of their positions; H or OH if unused. Non-standard residues stand in square brackets, D forms with d. Residues, ends and D or L forms follow the SMILES beside them. ξ: configuration not given here. X24 = O=C(C(CC(O)CO)O[*:1])[*:2]; Ile(3ξ) = CCC(C)[C@H](N)C(=O)O; NMeV = CN[C@H](C(=O)O)C(C)C; NMeA = CN[C@@H](C)C(=O)O; βAla = NCCC(=O)O
reported.endpoint: GI50

Lookup: Which GI50 reading was recorded for the compound Cc1ccc(NC(=O)/C(C#N)=C/c2ccccc2)c(C)c1 ?
Found: > 100 µM (inactive)

Lookup: Check O=C(/C=C\c1cccc2ccccc12)c1cccs1 too.
Found: 3.77 µM (inactive)

Lookup: Next compound up: Cc1cccc(C(C)C)c1NC(=O)CC1C(=O)Nc2ccccc2S1(=O)=O (centres undefined)
Found: 9.25 µM (inactive)

Lookup: Try O=C(O)COc1ccc(O)c2c1C(=O)CCCC2=O next.
Found: > 100 µM (inactive)

Lookup: Try this compound too: Cc1cc(O)c2c(c1)C(=O)c1cc(O)cc(O)c1C2=O
Found: 23.3 µM (inactive)

Lookup: Okay, and Cc1ccccc1Nc1nc2c(s1)C(=O)c1ccccc1C2=O ?
Found: 5.73 µM (inactive)

Lookup: Can you handle CCC12CCCNC1c1c(n(C)c3ccccc13)C(C(=O)OC)C2 (centres undefined) next?
Found: 76.4 µM (inactive)

Lookup: Now consider CCCCCCCCCCC/C(=N/O)c1ccc(O)c2ncccc12 and answer again.
Found: 2.75 µM (inactive)

Lookup: Repeat for the following compound: Cc1cc2nc3ccc(N(C)C)cc3[s+]c2cc1N [TOLONIUM CHLORIDE]
Found: 6.38 µM (inactive)

Lookup: Another compound to look at: CCc1ccccc1NC(=O)CCc1n[nH]c(=S)o1
Found: 92.5 µM (inactive)

Lookup: Subsequent entry: CCC(C)[C@@H]1NC(=O)[C@@H]2CCCN2C(=O)C(CC(O)CO)OC(=O)CCNC(=O)[C@H](C)N(C)C(=O)[C@H](C(C)C)N(C)C1=O (some centres undefined) (cyclo([Ile(3ξ)][NMeV][NMeA][βAla][X24]P))
Found: > 100 µM (inactive)

###

- Test system: OVCAR-5
- test.summary: NCI tumour cell line growth inhibition, 48 h
The source made the active and inactive calls. No stated cut-off is given here; in the data, active = GI50 up to about 1.1 µM and inactive = higher.
Choose the fitting class; nothing outside True (active), False (inactive) is accepted.

# example entries with known answers
O=C(O[C@H]1[C@@H](O)[C@H](n2cnc3c(Cl)ncnc32)O[C@@H]1COC(c1ccccc1)(c1ccccc1)c1ccccc1)c1ccccc1
False
CCCCCCCCCCC/C(=N/O)c1ccc(O)c2ncccc12
False

Lookup: Field: outcome | Entry: O=C(Nc1cc(Cl)c(Cl)cc1Cl)C(=O)C(C(=O)c1ccc2ccccc2c1)C1OC(=O)c2ccccc21 (stereo unspecified)
Found: False

Lookup: Same lookup for O=C(O)COc1ccccc1C(=O)Nc1ccccc1 , please.
Found: False

Lookup: What do you get for O=C(Cc1ccccc1)C(c1ccccc1)S(=O)(=O)c1ccccc1 (stereo unspecified) ?
Found: False

Lookup: Note, next up: CC(C)=CCC[C@@H](C)C1=C(O)C(=O)C(C)=C(Nc2ccccc2Cl)C1=O
Found: False

Lookup: Now give it for COC(=O)c1c2c(cc3c1CC1(Cc4cc5c(c(C)c4C1)CCC5)C3)CCC2 (stereo unspecified) too.
Found: False
